Source of measurements: patent US20240150368A1

system: ULK kinase substrate ATG13 (pS318-ATG13) in MiaPaCa-2 cells; experiment: pATG13 levels of mutant KRas MiaPaCa-2 cells after treatment with ULK inhibitors in combination with trametinib (ELISA); assay type: cell-based, human
pIC50: −log10 of the molar value.
result-type: pIC50

Dear colleague, could you send me pIC50 for each of the items below? Thanks.
1. CC/C(Nc1cnn(C2CCN(C(C)C)CC2)c1)=C1/C(=O)Nc2ccc(C(=O)NC[C@@H](C)OC)cc21
2. CC/C(Nc1cnn(C(C)C)c1)=C1/C(=O)Nc2ccc(C(=O)NCC(F)(F)F)cc21
3. CC/C(Nc1ccc(-c2cn(C)nn2)cc1)=C1/C(=O)Nc2ccc(C(=O)NCC(F)(F)F)cc21

1. ≥ 7.00
2. ≥ 7.00
3. ≥ 7.00
